Source of measurements: patent US9556187B2

Molecular target: UniProt O60674
Test: Enzyme assay (LANCE Ultra ULight-JAK1 Peptide), JAK2
Assay type: biochemical
Details: ATP 100 μM; Synthetic Examples^a
# IC50 values compiled below
parameter: IC50 (µM)

>>> print(df.to_string())
                                   compound  experimentaltarget  valueunits  measuredresult
0  c1ccc2sc(CN3CCC(c4nnn5cnc6[nH]ccc6c45)CC3)nc2c1 [Ex 232]      UniProt O60674          µM           0.033
1  Brc1nc(CN2CCC(c3nnn4cnc5[nH]ccc5c34)CC2)sc1Br [Ex 233]      UniProt O60674          µM           0.071
2  CC(c1ccccc1)N1CCC(c2nnn3cnc4[nH]ccc4c23)CC1 (racemic) [Ex 245]      UniProt O60674          µM           0.062

----------
Biological target: JAK1 (Homo sapiens (Human))
Experiment: Enzyme assay, JAK1 (Assay Example^b 1)
Format: biochemical
Settings: ATP 100 μM
parameter: IC50 (µM)

In [3]: df
Out[3]:
                        smilesnotation  valueunits  measuredresult
0  CC1(C)CCC(c2nnn3cnc4[nH]ccc4c23)CC1          µM           0.012

----------
Target: JAK1 (Homo sapiens (Human), UniProt P23458)
Sequence (P23458 whole entry): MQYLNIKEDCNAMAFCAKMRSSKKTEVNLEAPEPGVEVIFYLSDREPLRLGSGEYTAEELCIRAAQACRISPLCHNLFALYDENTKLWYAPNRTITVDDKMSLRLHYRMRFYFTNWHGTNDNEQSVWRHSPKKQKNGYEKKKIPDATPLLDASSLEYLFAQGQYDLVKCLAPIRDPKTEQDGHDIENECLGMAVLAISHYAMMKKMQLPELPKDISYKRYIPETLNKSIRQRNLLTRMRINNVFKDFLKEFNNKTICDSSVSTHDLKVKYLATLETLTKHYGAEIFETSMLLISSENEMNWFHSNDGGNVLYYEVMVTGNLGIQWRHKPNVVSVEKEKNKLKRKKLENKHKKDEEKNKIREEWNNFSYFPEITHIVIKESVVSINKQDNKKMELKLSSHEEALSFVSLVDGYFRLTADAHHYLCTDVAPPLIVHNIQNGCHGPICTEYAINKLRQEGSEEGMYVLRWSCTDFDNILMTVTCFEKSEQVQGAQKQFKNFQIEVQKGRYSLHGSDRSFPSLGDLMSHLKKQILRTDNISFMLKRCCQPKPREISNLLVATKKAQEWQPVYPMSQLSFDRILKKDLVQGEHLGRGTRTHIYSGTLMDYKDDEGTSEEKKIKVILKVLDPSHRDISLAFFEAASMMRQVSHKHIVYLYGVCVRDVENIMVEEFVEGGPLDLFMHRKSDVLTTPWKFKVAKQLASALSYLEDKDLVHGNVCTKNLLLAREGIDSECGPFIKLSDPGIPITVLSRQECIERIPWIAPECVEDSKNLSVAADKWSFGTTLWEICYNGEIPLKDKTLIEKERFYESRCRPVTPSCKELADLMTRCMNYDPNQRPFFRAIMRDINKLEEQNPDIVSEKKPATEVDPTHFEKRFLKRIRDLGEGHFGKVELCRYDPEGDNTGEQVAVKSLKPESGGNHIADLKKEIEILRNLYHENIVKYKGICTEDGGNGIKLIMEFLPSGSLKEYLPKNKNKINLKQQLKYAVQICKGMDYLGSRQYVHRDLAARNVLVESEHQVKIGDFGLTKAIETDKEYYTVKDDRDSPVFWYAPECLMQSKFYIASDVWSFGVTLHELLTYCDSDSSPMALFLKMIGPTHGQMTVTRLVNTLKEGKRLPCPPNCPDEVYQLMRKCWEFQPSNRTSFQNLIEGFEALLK
Experiment: Enzyme assay (LANCE Ultra ULight-JAK1 Peptide), JAK1
Assay type: biochemical
Details: ATP 100 μM
parameter: IC50 (µM)

>>> df
                        smilesnotation                        experimentaltarget  parameter  measuredresult
0  CC1(C)CCC(c2nnn3cnc4[nH]ccc4c23)CC1  JAK1 (Homo sapiens (Human), UniProt P23458)       IC50           0.033

----------
Target: Tyk2 (Homo sapiens (Human), UniProt P29597)
Sequence (P29597 whole entry): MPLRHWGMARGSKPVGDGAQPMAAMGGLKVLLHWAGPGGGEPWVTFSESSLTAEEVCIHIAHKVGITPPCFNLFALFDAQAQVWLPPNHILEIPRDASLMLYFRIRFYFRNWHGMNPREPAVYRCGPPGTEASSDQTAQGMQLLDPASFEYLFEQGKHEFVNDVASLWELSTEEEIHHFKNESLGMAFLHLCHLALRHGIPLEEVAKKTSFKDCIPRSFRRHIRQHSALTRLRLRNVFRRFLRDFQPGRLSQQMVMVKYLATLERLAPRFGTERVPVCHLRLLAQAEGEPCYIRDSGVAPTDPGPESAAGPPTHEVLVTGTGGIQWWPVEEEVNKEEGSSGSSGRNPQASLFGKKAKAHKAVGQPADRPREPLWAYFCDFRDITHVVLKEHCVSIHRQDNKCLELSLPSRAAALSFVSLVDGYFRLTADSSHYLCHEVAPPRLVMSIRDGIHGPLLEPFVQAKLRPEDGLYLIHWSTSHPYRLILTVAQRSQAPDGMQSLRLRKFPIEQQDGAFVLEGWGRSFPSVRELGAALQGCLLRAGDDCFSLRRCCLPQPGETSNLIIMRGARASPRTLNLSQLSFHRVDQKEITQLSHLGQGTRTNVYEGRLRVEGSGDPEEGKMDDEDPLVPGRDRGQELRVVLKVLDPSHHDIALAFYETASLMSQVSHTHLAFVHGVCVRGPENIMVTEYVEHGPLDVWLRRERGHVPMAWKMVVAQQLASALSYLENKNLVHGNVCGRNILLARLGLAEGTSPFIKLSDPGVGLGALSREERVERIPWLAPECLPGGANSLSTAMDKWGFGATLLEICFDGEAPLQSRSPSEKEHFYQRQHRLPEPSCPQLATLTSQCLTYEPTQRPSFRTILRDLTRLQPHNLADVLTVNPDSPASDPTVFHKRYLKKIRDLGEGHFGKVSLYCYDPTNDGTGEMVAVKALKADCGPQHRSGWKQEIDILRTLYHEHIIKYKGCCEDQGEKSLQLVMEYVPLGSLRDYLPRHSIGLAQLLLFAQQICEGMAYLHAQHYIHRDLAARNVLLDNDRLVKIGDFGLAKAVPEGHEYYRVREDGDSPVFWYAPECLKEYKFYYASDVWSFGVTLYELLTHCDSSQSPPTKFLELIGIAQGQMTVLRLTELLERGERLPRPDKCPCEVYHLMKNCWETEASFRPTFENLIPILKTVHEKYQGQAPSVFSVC
Test: Enzyme assay (LANCE Ultra ULight-JAK1 Peptide), Tyk2
Type: biochemical
Details: ATP 100 μM
parameter: IC50 (µM)

>>> df
                                   compound  valueunits  measuredresult
0  CC1(C)CCC(c2nnn3cnc4[nH]ccc4c23)CC1 [Ex 64]          µM            0.31

----------
Molecular target: JAK2 (Homo sapiens (Human))
Assay: Enzyme assay (LANCE Ultra ULight-JAK1 Peptide), JAK2
Format: biochemical
Details: ATP 100 μM
parameter: IC50 (µM)

>>> df
                        smilesnotation  valueunits  measuredresult
0  CC1(C)CCC(c2nnn3cnc4[nH]ccc4c23)CC1          µM            0.12

----------
JAK3 (Homo sapiens (Human), UniProt P52333): reported pIC50 for various compounds.
Sequence (P52333 whole entry): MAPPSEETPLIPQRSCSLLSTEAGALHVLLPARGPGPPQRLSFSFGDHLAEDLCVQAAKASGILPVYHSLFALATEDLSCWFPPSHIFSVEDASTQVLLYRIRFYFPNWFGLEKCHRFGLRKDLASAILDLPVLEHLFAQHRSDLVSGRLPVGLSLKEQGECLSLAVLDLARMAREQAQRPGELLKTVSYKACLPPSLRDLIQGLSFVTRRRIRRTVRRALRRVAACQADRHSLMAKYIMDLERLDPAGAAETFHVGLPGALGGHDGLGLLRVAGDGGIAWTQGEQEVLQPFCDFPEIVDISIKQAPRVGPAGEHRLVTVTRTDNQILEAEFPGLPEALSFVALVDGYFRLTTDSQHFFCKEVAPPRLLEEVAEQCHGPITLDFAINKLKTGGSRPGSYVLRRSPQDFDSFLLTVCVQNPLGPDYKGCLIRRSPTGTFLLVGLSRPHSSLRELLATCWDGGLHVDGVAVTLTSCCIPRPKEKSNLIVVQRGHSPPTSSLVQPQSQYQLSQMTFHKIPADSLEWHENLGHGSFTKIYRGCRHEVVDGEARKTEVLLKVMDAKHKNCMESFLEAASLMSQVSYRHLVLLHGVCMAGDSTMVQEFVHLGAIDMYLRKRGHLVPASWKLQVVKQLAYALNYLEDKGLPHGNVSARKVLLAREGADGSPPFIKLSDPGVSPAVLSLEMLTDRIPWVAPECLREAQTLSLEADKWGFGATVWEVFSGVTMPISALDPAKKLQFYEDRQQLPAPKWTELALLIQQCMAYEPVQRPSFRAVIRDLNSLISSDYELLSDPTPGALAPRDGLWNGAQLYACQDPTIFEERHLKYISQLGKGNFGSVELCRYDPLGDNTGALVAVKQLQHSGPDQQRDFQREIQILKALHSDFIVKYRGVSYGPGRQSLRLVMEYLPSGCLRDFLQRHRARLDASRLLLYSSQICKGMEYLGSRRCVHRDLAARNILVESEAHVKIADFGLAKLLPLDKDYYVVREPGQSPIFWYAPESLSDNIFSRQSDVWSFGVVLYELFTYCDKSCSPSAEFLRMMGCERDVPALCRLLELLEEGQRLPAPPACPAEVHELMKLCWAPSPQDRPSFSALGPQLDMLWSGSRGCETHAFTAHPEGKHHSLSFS
pIC50: −log10 of the molar value.
parameter: pIC50

In [3]: df
Out[3]:
                                   compound                        experimentaltarget  measuredresult
0  C[C@@H]1CCN(C)C[C@@H]1n1ccc(=O)c2cnc3[nH]ccc3c21 (racemic) [Synthetic Example^b 6b]  JAK3 (Homo sapiens (Human), UniProt P52333)            6.60
1  C[C@@H]1CCN(Cc2cccc(F)c2F)C[C@@H]1n1ccc(=O)c2cnc3[nH]ccc3c21 (racemic) [Synthetic Example^b 6a]  JAK3 (Homo sapiens (Human), UniProt P52333)            7.51
